Molecular target: Caspase-7 (Homo sapiens)
Sequence (P55210 whole entry): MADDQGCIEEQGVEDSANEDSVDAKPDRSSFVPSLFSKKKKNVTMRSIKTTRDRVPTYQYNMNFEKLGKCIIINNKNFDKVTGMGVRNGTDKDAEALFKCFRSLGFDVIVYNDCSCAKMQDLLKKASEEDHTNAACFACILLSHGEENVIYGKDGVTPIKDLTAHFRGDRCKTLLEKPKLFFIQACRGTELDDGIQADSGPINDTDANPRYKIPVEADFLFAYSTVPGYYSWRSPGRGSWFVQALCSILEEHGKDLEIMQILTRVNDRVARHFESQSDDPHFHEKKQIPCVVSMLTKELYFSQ
reported_metric: IC50 (nM)

[a] CC(=O)OC(C(=O)Nc1cccc2c1C(=O)C(=O)NC2=O)c1ccccc1 (stereo not drawn)
[b] O=C1NC(=O)c2cc(NC(=O)c3ccc([N+](=O)[O-])cc3)ccc2C1=O
[c] COc1ccccc1NC(=O)CCC(=O)Nc1ccc2c(c1)C(=O)C(=O)NC2=O
Data request: Which order do the items above take when sorted by IC50 from high to low? Reply: labels, ordered per the request.
Data returned: b, c, a
(b: 2710 nM, c: 218 nM, a: 63 nM)
